Test system: A549
experimental.details: Cytotoxicity against human A549 cells after 6 days by MTT method
Assay type: functional, cell-based
study.conditions: A549, 144 h
measured.property: log10(IC50) (log10 of the value in µM)
Each number you see is log10 of IC50, and the unit inside the log is µM.

| compound | subject.of.test | log10(IC50) |
| --- | --- | --- |
| CC(C)=CCC/C(C)=C/[C@@H](O)C/C(C)=C/CC[C@](C)(O)/C=C\c1cc(O)c(C)cc1O [CHABROLOHYDROXYBENZOQUINONE F] | A549 | 1.63 |
| CC(=O)O[C@H](CC/C(C)=C/CC[C@](C)(O)/C=C\c1cc(O)c(C)cc1O)[C@@](C)(O)CCC=C(C)C [CHABROLOHYDROXYBENZOQUINONE G] | A549 | 1.43 |

Sample CC(=O)OC/C(=C\CC/C(C)=C/CC/C(C)=C/CC1=CC(=O)C(C)=CC1=O)CCC=C(C)C [CHABROLOBENZOQUINONE F] — what was its log10(IC50)?
1.58

Sample CC(=O)O[C@H](CC/C(C)=C/CCc1ccc2c(c1)C(=O)C(C)=CC2=O)[C@@](C)(O)CCC=C(C)C [CHABROLONAPHTHOQUINONE B] — what was its log10(IC50)?
1.53

Sample CC(=O)O[C@H](CC/C(C)=C/CC/C(C)=C/CC1=CC(=O)C(C)=CC1=O)[C@@](C)(O)CCC=C(C)C [CHABROLOBENZOQUINONE H] — what was its log10(IC50)?
1.58

Sample COc1cccc2c1C(=O)c1c(O)c3c(c(O)c1C2=O)C[C@@](O)(C(=O)CO)C[C@@H]3O[C@H]1C[C@H](N)[C@H](O)[C@H](C)O1 [DOXORUBICIN] — what was its log10(IC50)?
-0.77
